IC50 data for BZω3 receptor (Rattus norvegicus, UniProt P16257) follow.
observed property: IC50 (nM)

query: Lab note: need IC50 with BZω3 receptor (Rattus norvegicus, UniProt P16257) for entry CN(Cc1ccc(F)cc1)C(=O)Cn1c(=O)n(C)c2nc(-c3ccccc3)ncc21 , please look it up.
result: 0.55

query: Also CCCN(CCC)C(=O)Cn1c(=O)[nH]c2cnc(-c3ccc([N+](=O)[O-])cc3)nc21 , if possible.
result: 1.3

[1] CCN(C(=O)Cn1c(=O)n(C)c2nc(-c3ccc(F)cc3)ncc21)c1ccccc1
[2] CCN(C(=O)Cn1c(=O)n(C)c2nc(-c3ccc(OC)cc3)ncc21)c1ccccc1
[3] CCCN(CCC)C(=O)Cn1c(=O)n(CC)c2cnc(-c3ccccc3)nc21
[4] CN(Cc1ccccc1F)C(=O)Cn1c(=O)n(C)c2nc(-c3ccccc3)ncc21
query: Order the records, beginning with the lowest IC50 and ending with the highest. To answer, arrange all of the labels according to the requested order.
result: 4, 3, 1, 2

[1] CCN(C(=O)Cn1c(=O)n(C)c2nc(-c3cccs3)ncc21)c1ccccc1
[2] CCCN(CCC)C(=O)Cn1c(=O)n(CC)c2cnc(-c3ccc(Cl)cc3)nc21
query: # return whichever of 1 and 2 has the smaller IC50 Kindly give the label for the entry you pick.
result: 1
(1: 1.3 nM, 2: 2.1 nM)

----------
We begin with a simple list: items and their reported melting point.

query: What does the data say about its melting point? Entry: COc1ccc(-c2ncc3c(n2)n(C)c(=O)n3CC(=O)N(C)Cc2ccccc2)cc1 [Example 51]
result: 205 to 206 °C

New cases:
query: What does the data say about its melting point? Entry: CCN(Cc1ccccc1)C(=O)Cn1c(=O)[nH]c2cnc(-c3ccc(OC)cc3)nc21 [Example 94]
result: 216 to 218 °C

query: Also CN(Cc1ccccc1)C(=O)Cn1c(=O)n(C)c2nc(-c3ccc(Cl)cc3)ncc21 [Example 49] , if possible.
result: 210 to 211 °C

query: Also CCCCN(CCCC)C(=O)Cn1c(=O)n(C)c2nc(-c3ccccc3)ncc21 [Example 63] , if possible.
result: 138 to 139 °C

query: Also CCN(C(=O)Cn1c(=O)n(C)c2nc(-c3ccccc3)nc(-c3ccccc3)c21)c1ccccc1 [Example 41] , if possible.
result: 185 to 187 °C

----------
We begin with a simple list: items and their reported melting point.

Study these solved cases before continuing.
query: What does the data say about its melting point? Entry: CCN(Cc1ccc(Cl)cc1)C(=O)Cn1c(=O)n(C)c2nc(-c3ccccc3)ncc21 [Example 77]
result: 198 to 199 °C

query: Also CN(C(=O)Cn1c(=O)[nH]c2cnc(-c3cccnc3)nc21)c1ccccc1 [Example 84] , if possible.
result: 268 to 270 °C

query: Also CN(C(=O)Cn1c(=O)n(C)c2nc(-c3ccc(F)cc3)ncc21)c1ccccc1 [Example 5] , if possible.
result: 169 to 170 °C

query: Also CCN(Cc1cccc(F)c1)C(=O)Cn1c(=O)n(C)c2nc(-c3ccccc3)ncc21 [Example 75] , if possible.
result: 144 to 145 °C

New cases:
query: What does the data say about its melting point? Entry: CCCN(CCC)C(=O)Cn1c(=O)n(CC)c2nc(-c3ccccc3)ncc21 [Example 33]
result: 134 to 135 °C

query: Also CCCN(CCC)C(=O)Cn1c(=O)n(CC)c2cnc(-c3ccccc3)nc21 [Example 107] , if possible.
result: 98 to 99 °C

query: Also CCN(C(=O)Cn1c(=O)n(CC)c2cnc(-c3ccccc3)nc21)c1ccccc1 [Example 167] , if possible.
result: 154 to 155 °C

query: Also CCCN(CCC)C(=O)Cn1c(=O)[nH]c2cnc(-c3ccc(F)cc3)nc21 [Example 81] , if possible.
result: 213 to 215 °C
